assay-remarks: inhibitors of TNFa-induced NFkB p65 translocation, primary screen, imaging, HUVEC, MLSMR starter and 10KST1 sets (AID 438);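 note: compound added about 3h40 before a 20 min TNFalpha stimulation; signal is the nuclear over cytoplasmic p65 intensity ratio per well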
condition-details: HUVEC TNFa-induced p65 nuclear translocation; at 2 µM, hits give high values, 0% TNFa-plus-vehicle, 100% no-TNFa wells
Here, each record is paired with measured inhibition data.
assay-metric: inhibition (%)

>>> reported_value("N=c1c(C(=O)NCc2ccccc2)cc2c(=O)n3ccccc3nc2n1Cc1ccco1")
-3.1
>>> reported_value("COc1ccccc1C(=O)NC(=Nc1nc2ccccc2o1)NC(=O)c1ccccc1OC")
-2.8
>>> reported_value("COc1ccc(Nc2nc(Nc3ccc(OC)cc3)nc(-n3[nH]c(=O)c(C)c3C)n2)cc1")
-10.8
>>> reported_value("O=C(CN1C(=O)c2ccccc2C1=O)NCc1ccccn1")
-5.8
>>> reported_value("CC1(C)Cc2c(C#N)c(N3CCOCC3)nc(-c3ccccc3)c2CO1")
-14.3
>>> reported_value("CCCOc1ccc(/C(O)=C2/C(=O)C(=O)N(CCN(C)C)C2c2ccc(OC)c(OC)c2)cc1 (stereo unspecified)")
-7.3
>>> reported_value("Cc1ccc2[nH]c3c(N4CCN(Cc5ccccc5)CC4)ncnc3c2c1")
-7.3
>>> reported_value("COc1ccc(-c2nc3n(c2Br)CCC3)cc1")
-14.6
>>> reported_value("Cc1c(-c2cccs2)[n+](=O)c2c(n1[O-])CCCC2")
-16.7
>>> reported_value("Cc1nc2sc3c(c2c(=O)o1)CC(C)(C)OC3")
-9.6
>>> reported_value("N#CCSc1nc2sc3c(c2c(=O)n1C1CCCCC1)CCCC3")
-21.9
>>> reported_value("NC(CO)C(=O)NNCc1ccc(O)c(O)c1O (stereo unspecified)")
-9.9
>>> reported_value("CC(C)(C)NCC(O)c1cc(O)cc(O)c1 (stereo unspecified)")
-2.4
>>> reported_value("Nc1nc(N)c2nc(-c3ccccc3)c(N)nc2n1")
-0.8
>>> reported_value("CSc1nc2sc3c(c2c(=O)[nH]1)CCC(C)C3 (stereo unspecified)")
-19.4
>>> reported_value("CCC1(C)Cc2c(sc3c2c(=O)n(C)c2nnc(SCc4ccccc4)n32)CO1 (stereo unspecified)")
1.3
>>> reported_value("Cc1ncc([N+](=O)[O-])n1CC(O)CCl (stereo unspecified)")
-5
>>> reported_value("OC(CNCCCN1CCCCC1)COc1ccccc1 (stereo unspecified)")
-6.2
>>> reported_value("CCCCCC#CCC#CCC#CCC#CCCCC(=O)O")
-10.5
>>> reported_value("COC(=O)c1cc(Br)c(=O)n(-c2nccs2)c1")
-4.2
>>> reported_value("CCOC(=O)c1[nH]c2cc3c(cc2c1NC(=O)CN1CCCCC1C)OCO3 (stereo unspecified)")
-1.8
>>> reported_value("CCCc1c(OCCCCc2nn[nH]n2)ccc(C(C)=O)c1O")
-11.6
>>> reported_value("CC(=O)[C@H]1[C@H](C#N)C[C@H]2[C@@H]3CC=C4C[C@@H](O)CC[C@]4(C)[C@H]3CC[C@@]21C")
-9.3
>>> reported_value("Nc1ccc2cn[nH]c2c1")
0.3
>>> reported_value("CC(C)Cn1nc(NC(=O)C(C)(C)C)c2cc3ccccc3nc21")
1.4
>>> reported_value("COc1cc(C(=O)OCCN2CCCCC2)ccc1O")
-2.2
>>> reported_value("Cc1nc(NS(=O)(=O)c2ccccc2)sc1NC(=O)OC(C)C")
-12.7
>>> reported_value("CCN(CC)c1ccc2c(C)c(-c3ccc(N)cc3)c(=O)oc2c1")
-5
>>> reported_value("C=CCn1c(SCc2c(F)c(F)c(F)c(F)c2F)nc(O)cc1=O")
-1.1
>>> reported_value("CCCCn1c(C)cc2cc(O)ccc21")
-9.2
>>> reported_value("CCOC(=O)CCCCC(=O)NC(CO)C(=O)NC (stereo unspecified)")
-3.8
>>> reported_value("COc1ccc2c(c1)C1(C)CC(C)(C)N2C(=O)N1c1ccccc1 (stereo unspecified)")
-8.2
>>> reported_value("CCOC(=O)C1CCCN(c2nc3ccccc3nc2C(C#N)C(=O)OCCOC)C1 (stereo unspecified)")
-14.7
>>> reported_value("N#CC1=C(N)N(c2ccccc2)C(c2ccccc2)C1(C#N)C#N (stereo unspecified)")
-9.5
>>> reported_value("CCOC(=O)c1cc(C)n(-c2ccc(OC)c(OC)c2)c1C")
-8.1
>>> reported_value("COC(=O)CSc1nnc2n(-c3ccc(OC)cc3)c(=O)c3c4c(sc3n12)CCCCC4")
-2.8
>>> reported_value("CCCCOc1ccc(C(=O)CCN2CCCCC2)cc1")
-10.4
>>> reported_value("Cc1cn([C@H]2C[C@H](N=[N+]=[N-])[C@@H](CO)O2)c(=O)[nH]c1=O")
-4
>>> reported_value("CCN(CC)CCCn1c(C)cc2c(c1=O)C(c1ccccc1)C(C#N)=C(N)O2 (stereo unspecified)")
11.8
>>> reported_value("Cc1nc2sc3c(NCc4ccco4)ncnc3c2c2c1COC(C)(C)C2")
-11
>>> reported_value("CCCn1c(=O)c2[nH]c(C3CCCC3)nc2n(CCC)c1=O")
-3.1
>>> reported_value("COc1ccc(C=NCCCN2CCOCC2)cc1")
-9.5
>>> reported_value("COc1ccc2[nH]c3c(N4CCN(Cc5ccc6c(c5)OCO6)CC4)ncnc3c2c1")
-0.7
>>> reported_value("CC1(C)Cc2c(sc3c4nnnn4c4nnnn4c23)CO1")
-12.5
>>> reported_value("CC(=O)C1=C(O)C(=O)N(c2ccc(C(=O)O)cc2)C1c1ccccc1 (stereo unspecified)")
4.5
>>> reported_value("N[C@@H](C(=O)N[C@@H]1C(=O)N2C(C(=O)O)=C(Cl)CS[C@H]12)c1ccccc1")
-2
